Measured activation at 50 µM values are reported for all entries that follow.
target_desc: Pancreas GK (Homo sapiens, UniProt P35557)
Construct: (His)6; made in house; host or cells: Escherichia coli
Sequence (P35557 1-465): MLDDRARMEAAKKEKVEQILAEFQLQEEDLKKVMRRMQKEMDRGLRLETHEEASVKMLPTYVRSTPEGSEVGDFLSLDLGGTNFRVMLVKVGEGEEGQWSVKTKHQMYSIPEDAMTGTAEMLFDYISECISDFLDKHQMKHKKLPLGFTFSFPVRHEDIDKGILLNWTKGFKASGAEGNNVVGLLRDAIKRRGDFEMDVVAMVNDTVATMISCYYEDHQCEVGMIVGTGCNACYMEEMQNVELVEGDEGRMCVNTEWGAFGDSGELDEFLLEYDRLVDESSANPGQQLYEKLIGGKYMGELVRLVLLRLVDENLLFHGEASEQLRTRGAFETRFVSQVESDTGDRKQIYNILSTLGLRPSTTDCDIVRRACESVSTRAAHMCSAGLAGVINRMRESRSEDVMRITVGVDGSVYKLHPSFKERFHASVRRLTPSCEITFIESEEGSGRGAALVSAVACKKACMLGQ
experiment_description: Glucokinase enzyme assay, pancreas GK
Format: biochemical
assay_conditions: percentage increase in GK activity above vehicle control, compound 50 μM, 12 mM glucose
Dear colleague, please return just the value in %, with no unit written.

// worked examples, activation at 50 µM included
molecule	activation at 50 µM (%)
CC1=C(C)C(SCC(=O)Nc2ccccn2)N(Cc2ccc(C(C)C)cc2)C1=O (stereo not drawn)	130
COc1ccc(CN2C(=O)C(C)=C(C)[C@H]2S[C@H](C)C(=O)Nc2ccccn2)cc1 (stereo in doubt)	24

Test system Pancreas GK (Homo sapiens, UniProt P35557); read-out activation at 50 µM; what value for COc1ccc(CN2C(=O)C(C)=C(C)C2SCC(=O)Nc2ccc(C(N)=O)cn2)cc1 (stereo not drawn) ?
167

# value lookup — system Pancreas GK (Homo sapiens, UniProt P35557), readout activation at 50 µM, item COc1ccc(CN2C(=O)C(C)=C(C)C2OCC(=O)Nc2nccs2)cc1 (stereo not drawn)
3

Provide the documented activation at 50 µM with Pancreas GK (Homo sapiens, UniProt P35557) as the system for COC(=O)c1ccc(NC(=O)CSC2C(C)=C(C)C(=O)N2Cc2ccc(F)cc2)nc1 (stereo not drawn)
156

Please provide the recorded activation at 50 µM for COC(=O)c1ccc(NC(=O)CSC2C(C)=C(C)C(=O)N2Cc2ccc3c(c2)CCO3)nc1 (stereo not drawn) , tested on Pancreas GK (Homo sapiens, UniProt P35557).
209
